Target: human active recombinant p38α-6His tagged (Homo sapiens, UniProt Q16539)
Sequence (Q16539 whole entry): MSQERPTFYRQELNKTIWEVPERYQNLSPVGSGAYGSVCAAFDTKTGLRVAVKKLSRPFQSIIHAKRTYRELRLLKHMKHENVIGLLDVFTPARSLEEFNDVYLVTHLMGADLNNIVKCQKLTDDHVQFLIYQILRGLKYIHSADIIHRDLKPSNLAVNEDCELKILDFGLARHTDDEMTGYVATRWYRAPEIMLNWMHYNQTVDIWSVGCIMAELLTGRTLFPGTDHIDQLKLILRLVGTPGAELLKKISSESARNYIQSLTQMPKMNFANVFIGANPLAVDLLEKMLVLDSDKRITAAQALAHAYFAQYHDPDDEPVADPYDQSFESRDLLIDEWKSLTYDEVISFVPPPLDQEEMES
Experiment: P38 Alpha Enzyme Assay (AlphaScreen, biotinylated-ATF2 substrate)
Format: biochemical
Conditions: p38 alpha enzyme inhibition; means of replicate determinations; 4 h pre-incubation at 37° C.; SD of assay 0.2-0.3 log units
Assay Readout: pIC50
Hey, just send me the number, nothing else.

Here is how some compounds turned out for pIC50.
[
  {
    "Compound": "Cc1ccc(C(=O)NC2CC2)cc1-n1ccnc(NCc2cccc(CN3CCN(C)CC3)c2)c1=O",
    "Test Target": "human active recombinant p38α-6His tagged (Homo sapiens, UniProt Q16539)",
    "pIC50": 6.7
  },
  {
    "Compound": "Cc1ccc(C(=O)NC2CC2)cc1-n1ccnc(NCC2CCOCC2)c1=O",
    "Test Target": "human active recombinant p38α-6His tagged (Homo sapiens, UniProt Q16539)",
    "pIC50": 6.4
  },
  {
    "Compound": "Cc1ccc(C(=O)NC2CC2)cc1-n1ccnc(NC(C)(C)c2ccccc2OCCNCCO)c1=O",
    "Test Target": "human active recombinant p38α-6His tagged (Homo sapiens, UniProt Q16539)",
    "pIC50": 9.6
  },
  {
    "Compound": "Cc1ccc(C(=O)NC2CC2)cc1-n1ccnc(NCC2CNc3ccccc3C2)c1=O (stereo not drawn)",
    "Test Target": "human active recombinant p38α-6His tagged (Homo sapiens, UniProt Q16539)",
    "pIC50": 7
  },
  {
    "Compound": "Cc1c(F)cc(C(=O)NC2CC2)cc1-n1ccnc(N[C@@H](c2ccccc2)[C@@H](C)CN2CCCCC2)c1=O",
    "Test Target": "human active recombinant p38α-6His tagged (Homo sapiens, UniProt Q16539)",
    "pIC50": 9.6
  },
  {
    "Compound": "Cc1ccc(C(=O)NC2CC2)cc1-n1ccnc(N[C@@H](CO)c2ccccc2)c1=O",
    "Test Target": "human active recombinant p38α-6His tagged (Homo sapiens, UniProt Q16539)",
    "pIC50": 6.3
  },
  {
    "Compound": "Cc1ccc(C(=O)NC2CC2)cc1-n1ccnc(NCc2ccccc2Cl)c1=O",
    "Test Target": "human active recombinant p38α-6His tagged (Homo sapiens, UniProt Q16539)",
    "pIC50": 7.7
  },
  {
    "Compound": "Cc1cccc(C2CCCCN2c2nccn(-c3cc(C(=O)NC4CC4)ccc3C)c2=O)c1 (stereo not drawn)",
    "Test Target": "human active recombinant p38α-6His tagged (Homo sapiens, UniProt Q16539)",
    "pIC50": 7.5
  }
]

Task: Which pIC50 is listed for CCCNCCOc1ccccc1C1(Nc2nccn(-c3cc(C(=O)NC4CC4)ccc3C)c2=O)CC1 ?
Output: 10.2

Task: Which pIC50 is listed for CCNCCOc1ccccc1C1(Nc2nccn(-c3cc(C(=O)NC4CC4)c(F)cc3C)c2=O)CC1 ?
Output: 8.2

---

Recorded pIC50, one value per entry.
Target: human active recombinant p38α-6His tagged (Homo sapiens, UniProt Q16539)
Test: P38 Alpha Enzyme Assay (AlphaScreen, biotinylated-ATF2 substrate)
Format: biochemical
Details: p38 alpha enzyme inhibition; means of replicate determinations; 4 h pre-incubation at 37° C.; SD of assay 0.2-0.3 log units

Here is how some compounds turned out for pIC50.
[
  {
    "Smiles Text": "Cc1ccc(C(=O)NC2CC2)cc1-n1ccnc(NCc2cccc(CN)c2)c1=O",
    "Test Target": "human active recombinant p38α-6His tagged (Homo sapiens, UniProt Q16539)",
    "Reported Result": 6.9
  },
  {
    "Smiles Text": "Cc1ccc(C(=O)NC2CC2)cc1-n1ccnc(N[C@@H](c2ccccc2)[C@@H](C)CN2CCC3(CC2)CNC3)c1=O",
    "Test Target": "human active recombinant p38α-6His tagged (Homo sapiens, UniProt Q16539)",
    "Reported Result": 9.2
  },
  {
    "Smiles Text": "Cc1ccc(C(=O)NC2CC2)cc1-n1ccnc(NC2(c3ccccc3OCCN3CCC[C@H]3C)CC2)c1=O",
    "Test Target": "human active recombinant p38α-6His tagged (Homo sapiens, UniProt Q16539)",
    "Reported Result": 9.8
  },
  {
    "Smiles Text": "CCN(C)CCOc1ccccc1C1(Nc2nccn(-c3cc(C(=O)NC4CC4)ccc3C)c2=O)CC1",
    "Test Target": "human active recombinant p38α-6His tagged (Homo sapiens, UniProt Q16539)",
    "Reported Result": 9.5
  },
  {
    "Smiles Text": "Cc1ccc(C(=O)NC2CC2)cc1-n1ccnc(NC2(c3ccccc3OCCN3CCCC3)CC2)c1=O",
    "Test Target": "human active recombinant p38α-6His tagged (Homo sapiens, UniProt Q16539)",
    "Reported Result": 9.7
  },
  {
    "Smiles Text": "CNCCOc1c(F)cccc1C1(Nc2nccn(-c3cc(C(=O)NC4CC4)ccc3C)c2=O)CC1",
    "Test Target": "human active recombinant p38α-6His tagged (Homo sapiens, UniProt Q16539)",
    "Reported Result": 9.3
  },
  {
    "Smiles Text": "Cc1ccc(C(=O)NC2CC2)cc1-n1ccnc(N2CCCCC2)c1=O",
    "Test Target": "human active recombinant p38α-6His tagged (Homo sapiens, UniProt Q16539)",
    "Reported Result": 6.8
  },
  {
    "Smiles Text": "CONC(=O)c1ccc(C)c(-n2ccnc(N[C@@H](c3ccccc3)[C@@H](C)CN3CCOCC3)c2=O)c1",
    "Test Target": "human active recombinant p38α-6His tagged (Homo sapiens, UniProt Q16539)",
    "Reported Result": 9.8
  },
  {
    "Smiles Text": "Cc1ccc(C(=O)NC2CC2)cc1-n1ccnc(NCc2cc(C(F)(F)F)cc(C(F)(F)F)c2)c1=O",
    "Test Target": "human active recombinant p38α-6His tagged (Homo sapiens, UniProt Q16539)",
    "Reported Result": 7.1
  },
  {
    "Smiles Text": "CNCCOc1ccccc1C(C)(C)Nc1nccn(-c2cc(C(=O)NCCO)ccc2C)c1=O",
    "Test Target": "human active recombinant p38α-6His tagged (Homo sapiens, UniProt Q16539)",
    "Reported Result": 6.8
  }
]

Task: Which pIC50 is listed for Cc1ccc(C(=O)NC2CC2)cc1-n1ccnc(NC(C)(C)c2ccccc2OCCC2CCNCC2)c1=O ?
Output: 9.6

Task: Which pIC50 is listed for Cc1ccc(C(=O)NC2CC2)cc1-n1ccnc(NC(C)(C)c2ccccc2OCCN2CCN(C)CC2)c1=O ?
Output: 9.2

---

Molecular target: human active recombinant p38α-6His tagged (Homo sapiens, UniProt Q16539)
Assay: P38 Alpha Enzyme Assay (AlphaScreen, biotinylated-ATF2 substrate);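 note: 0.5 nM final p38α, reaction started with ATP and run 45 min at 37 °C, phospho-ATF2 read by antibody-based AlphaScreen, background wells quenched with EDTA before ATP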
Assay type: biochemical
Settings: p38 alpha enzyme inhibition; means of replicate determinations; 4 h pre-incubation at 37° C.; SD of assay 0.2-0.3 log units
Assay Readout: pIC50
Hey, just send me the number, nothing else.

Here is how some molecules turned out for pIC50.
[
  {
    "Molecule": "CNCCSc1ccccc1C(C)(C)Nc1nccn(-c2cc(C(=O)NC3CC3)cc(F)c2C)c1=O",
    "pIC50": 9.5
  },
  {
    "Molecule": "CONC(=O)c1ccc(C)c(-n2ccnc(C3CCCC3)c2=O)c1",
    "pIC50": 7.3
  },
  {
    "Molecule": "Cc1ccc(C(=O)NC2CC2)cc1-n1ccnc(N[C@@H](c2ccccc2)[C@@H](C)CN2CCN(C3CCS(=O)(=O)C3)CC2)c1=O (stereo partly drawn)",
    "pIC50": 9.6
  }
]

Task: Which pIC50 is listed for Cc1ccc(C(=O)NC2CC2)cc1-n1ccnc(NC2(c3ccccc3OCCN3CCC[C@H]3CO)CC2)c1=O ?
Output: 9.6

Task: Which pIC50 is listed for CNCCCOc1ccccc1C1CCCN1c1nccn(-c2cc(C(=O)NC3CC3)ccc2C)c1=O (stereo not drawn) ?
Output: 8.1

Task: Which pIC50 is listed for CCONC(=O)c1ccc(C)c(-n2ccnc(NC(C)(C)c3ccccc3OCCNC)c2=O)c1 ?
Output: 9

Task: Which pIC50 is listed for Cc1ccc(C(=O)NC2CC2)cc1-n1ccnc(NC2(c3cccc(F)c3OCCNCCO)CC2)c1=O ?
Output: 9.6

Task: Which pIC50 is listed for Cc1ccc(C(=O)NC2CC2)cc1-n1ccnc(N[C@H](CO)c2ccccc2)c1=O ?
Output: 7.9

---

Target: human active recombinant p38α-6His tagged (Homo sapiens)
Test: P38 Alpha Enzyme Assay (AlphaScreen, biotinylated-ATF2 substrate)
Assay type: biochemical
Conditions: p38 alpha enzyme inhibition; means of replicate determinations; 4 h pre-incubation at 37° C.; SD of assay 0.2-0.3 log units
Cut-off 9 on pIC50, inclusive. At or above means Y; below means N.

A selection of reference data follows.
[
  {
    "Smiles Text": "CNC[C@H](O)COc1ccccc1C(C)(C)Nc1nccn(-c2cc(C(=O)NC3CC3)cc(F)c2C)c1=O",
    "Label Value": "Y"
  },
  {
    "Smiles Text": "CCNC(=O)c1ccc(C)c(-n2ccnc(NCc3ccccc3)c2=O)c1",
    "Label Value": "N"
  },
  {
    "Smiles Text": "Cc1ccc(C(=O)NC2CC2)cc1-n1ccnc(NC2(c3ccccc3OCCN3CC[C@@H](O)C3)CC2)c1=O",
    "Label Value": "Y"
  },
  {
    "Smiles Text": "CCNC[C@@H](O)COc1ccccc1C1(Nc2nccn(-c3cc(C(=O)NC4CC4)ccc3C)c2=O)CC1",
    "Label Value": "Y"
  },
  {
    "Smiles Text": "Cc1c(F)cc(C(=O)NC2CC2)cc1-n1ccnc(NC2(c3ccccc3OCCNC[C@H](C)O)CC2)c1=O",
    "Label Value": "Y"
  }
]

Task: Could you verify whether the entry Cc1ccc(C(=O)NC2CC2)cc1-n1ccnc(NCc2ccccc2CN2CCN(C)CC2)c1=O shows pIC50 of no less than 9?
Output: N

Task: Could you verify whether the entry Cc1ccc(C(=O)NC2CC2)cc1-n1ccnc(N[C@H](C)c2cccc3ccccc23)c1=O shows pIC50 of no less than 9?
Output: N

Task: Could you verify whether the entry Cc1ccc(C(=O)NC2CC2)cc1-n1ccnc(NC2(c3ccccc3OCCN3CCNCC3)CC2)c1=O shows pIC50 of no less than 9?
Output: Y
